The following sequences are shown together with reported shrunken log2 fold change values.
Test system: Escherichia coli TOP10;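 also: peptides expressed intracellularly from a pBAD plasmid library in pooled LB shake-flask culture, induced with 0.3% L-arabinose, DNA abundance read by NGS, three biological replicates, DESeq2 with apeglm shrinkage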
Experiment: shrunken log2 fold change of peptide-encoding DNA abundance (4.5 h post-induction vs induction); higher = less antimicrobial activity (less host growth inhibition)
Settings: time post-induction: 4.5 h; library: site-saturation at positions 5, 18, 19, 20
Output: the number by itself.

The examples below pair each entry with its known result.
RRIRDRPPRLPRPRPRPHYAPRP = -0.00151
RRIRCRPPRLPRPRPRPMCYPRP = -0.244
RRIRRRPPRLPRPRPRPPANPRP = 0.731
RRIRLRPPRLPRPRPRPPYKPRP = -0.292
RRIRARPPRLPRPRPRPCEYPRP = -0.133
RRIRTRPPRLPRPRPRPFRMPRP = 0.0244
RRIRYRPPRLPRPRPRPVPPPRP = 0.208
RRIRWRPPRLPRPRPRPNAQPRP = -0.0306

Query string: Identify the measured shrunken log2 fold change of `RRIRPRPPRLPRPRPRPRRFPRP` for Escherichia coli TOP10.
Result string: 0.0399

Query string: Give shrunken log2 fold change (Escherichia coli TOP10) of the following sequence: `RRIRYRPPRLPRPRPRPVCGPRP`
Result string: -0.463
